These compounds were tested on β-trypsin (bovine pancreatic) (Bos taurus); IC50 is the recorded read-out.
Sequence (P00760 24-246): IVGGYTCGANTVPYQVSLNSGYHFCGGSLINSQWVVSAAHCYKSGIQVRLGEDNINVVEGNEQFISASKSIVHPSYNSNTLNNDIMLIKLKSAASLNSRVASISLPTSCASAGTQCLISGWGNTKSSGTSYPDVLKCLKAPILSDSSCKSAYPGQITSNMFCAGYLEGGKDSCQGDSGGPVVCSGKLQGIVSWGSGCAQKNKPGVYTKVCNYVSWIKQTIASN
test.readout: IC50

INSERT INTO measurements (compound, measured_result) VALUES
  ('O=C(Cc1cccs1)N[C@H](B(O)O)c1cccc(C(=O)O)c1 [Compound 16]', '> 1 mM'),
  ('O=C(Cc1cccs1)N[C@H](B(O)O)c1ccccc1 [Compound 21]', '> 1 mM');

---

Collected ΔΔG from 1 values appear next to each entry.
- tgt: AmpC β-lactamase (Escherichia coli, UniProt P00811)
- Construct: made in house
- Sequence (P00811 20-377): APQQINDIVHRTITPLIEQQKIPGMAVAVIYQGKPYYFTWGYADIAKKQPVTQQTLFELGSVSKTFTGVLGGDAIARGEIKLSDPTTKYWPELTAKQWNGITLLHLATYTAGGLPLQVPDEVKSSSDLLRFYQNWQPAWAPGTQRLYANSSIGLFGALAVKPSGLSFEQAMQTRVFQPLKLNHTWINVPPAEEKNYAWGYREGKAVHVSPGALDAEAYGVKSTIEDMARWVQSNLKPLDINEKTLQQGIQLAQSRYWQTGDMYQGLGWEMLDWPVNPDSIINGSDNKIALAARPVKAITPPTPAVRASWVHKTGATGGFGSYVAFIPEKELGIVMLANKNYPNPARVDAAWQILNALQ
- experiment: biochemical
- run.conditions: differential free energy of binding relative to compound 1, 298 K; positive = improved affinity
test.readout: ΔΔG from 1

INSERT INTO results (compound, test_readout, measured_result) VALUES
  ('CC(=O)NCB(O)O [Compound 1, reference compound]', 'ΔΔG from 1', '0.00 kcal/mol'),
  ('CC(=O)N[C@H](B(O)O)c1cccc(C(=O)O)c1', 'ΔΔG from 1', '2.95 kcal/mol'),
  ('Cc1onc(-c2ccccc2Cl)c1C(=O)N[C@H](B(O)O)c1cccc(C(=O)O)c1', 'ΔΔG from 1', '0.70 kcal/mol'),
  ('O=C(Cc1cccs1)N[C@H](B(O)O)c1ccccc1', 'ΔΔG from 1', '3.71 kcal/mol'),
  ('O=C(Cc1cccs1)N[C@H](B(O)O)c1cccc(C(=O)O)c1', 'ΔΔG from 1', '5.82 kcal/mol');
